Reported pEC50 values are given for each entry in this list.
Tested on: A549 cells
Assay: A549 Cytotoxicity Assay (Cell Titer Glo viability)
Format: cell-based
Details: Homo sapiens, A549; 48 hrs, Cell Titer Glo; read-out: EC50 A549
pEC50: −log10 of the molar value.

Known pEC50 results, listed for orientation:
compound	study-system	pEC50
C[C@@H]1CC(=O)NN=C1c1ccc(N)c(Br)c1	A549 cells	< 5.00
C[C@@H]1CC(=O)NN=C1c1ccc(N2CCOCC2)cc1 [drawing 151]	A549 cells	< 5.00

Next compound, pEC50 to be filled in.
Query pEC50 for Cc1cc(=O)[nH]nc1-c1ccc(N)cc1 [drawing 149]
< 5.00

---

System: A549 cells
Experiment: A549 Cytotoxicity Assay (Cell Titer Glo viability)
Format: cell-based
Details: known PDE3 inhibitors; Mean (n = 3); read-out: Potency (EC50 nM) A549
Description: A549 Cytotoxicity Assay Protocol. Day 0: A549 cells (ATCC, A549 CCL-185) are grown to 95% confluence in RPMI, 10% FBS/Pen/Strep/L-Glutamine. […] Read on Perkin-Elmer EnVision with US LUM settings for 0.1 second per well. A549 Assay Protocol. […] Read plates on Perkin-Elmer EnVision with standard luminescence settings for 0.1 sec per well. […]
measurement-kind: EC50

Query EC50 for CC(=O)Nc1ccc(C2=NNC(=O)C[C@H]2C)cc1 [OR-1896, reference compound]
> 10000 nM

---

System: HEL
Assay: HEL cell line viability (Cell Titer Glo)
Format: cell-based
Settings: 48 hrs
Reported EC50 values are given for each entry in this list.

compound	measurement-kind	reported
C[C@@H]1CC(=O)NN=C1c1ccc(N2CCOCC2)cc1 [drawing 138]	EC50	0.0257 to 0.0584 µM

Query EC50 for CCN(CC)c1ccc(C2=NNC(=O)C[C@H]2C)cc1[N+](=O)[O-] [drawing 145]
0.0113 to 0.0162 µM

---

Test system: HeLa cells
Experiment: HeLa Cytotoxicity Assay (Cell Titer Glo viability)
Type: cell-based
Conditions: Homo sapiens, HeLa, n = 2; read-out: Potency (EC50) HeLa
measurement-kind: EC50

Known EC50 results, listed for orientation:
compound	EC50
CC1CC(=O)N(c2ccccc2)N=C1c1ccc(Cl)cc1 (stereo not shown)	> 10 µM
CC1CC(=O)NN=C1c1ccc(NCCO)c([N+](=O)[O-])c1 (stereo not shown)	0.004 µM
CC1CC(=O)NN=C1c1ccc(N2CCCCC2)c([N+](=O)[O-])c1 (stereo not shown)	0.001 µM
CC1CC(=O)NN=C1c1ccc(N2CCN(C(=O)Cc3ccc(Cl)cc3Cl)CC2)cc1 (stereo not shown)	> 10 µM
CC1CC(=O)NN=C1c1cccs1 (stereo not shown)	> 10 µM

Query EC50 for CCN(CC)c1ccc(-c2nc(C(C)C)no2)cc1[N+](=O)[O-]
> 10 µM

Query EC50 for CCN(CC)c1ccc(C(=O)Nc2ccccc2)cc1[N+](=O)[O-]
> 10 µM

---

Reported pEC50 values are given for each entry in this list.
Tested on: HeLa cells
Test: HeLa Cytotoxicity Assay (Cell Titer Glo viability)
Assay type: cell-based
Settings: Homo sapiens, HeLa, n = 2; read-out: Potency (EC50) HeLa
pEC50: −log10 of the molar value.

Known pEC50 results, listed for orientation:
compound	study-system	pEC50
CCN(CC)c1ccc(C2=NNC(=O)CC2C)cc1[N+](=O)[O-] (stereo not drawn) [drawing 226]	HeLa cells	8.40
Cc1ccc(CCC(=O)N2CCN(c3ccc(C4=NNC(=O)CC4C)cc3)CC2)cc1 (stereo not drawn)	HeLa cells	< 5.00

Next compound, pEC50 to be filled in.
Query pEC50 for O=C1CC(c2ccccc2)=NN1
< 5.00

Origin of the recorded values: patent US20180244629A1
